Test System: Ferroportin (Homo sapiens)
Sequence (Q9NP59 whole entry, the tested form may be a part): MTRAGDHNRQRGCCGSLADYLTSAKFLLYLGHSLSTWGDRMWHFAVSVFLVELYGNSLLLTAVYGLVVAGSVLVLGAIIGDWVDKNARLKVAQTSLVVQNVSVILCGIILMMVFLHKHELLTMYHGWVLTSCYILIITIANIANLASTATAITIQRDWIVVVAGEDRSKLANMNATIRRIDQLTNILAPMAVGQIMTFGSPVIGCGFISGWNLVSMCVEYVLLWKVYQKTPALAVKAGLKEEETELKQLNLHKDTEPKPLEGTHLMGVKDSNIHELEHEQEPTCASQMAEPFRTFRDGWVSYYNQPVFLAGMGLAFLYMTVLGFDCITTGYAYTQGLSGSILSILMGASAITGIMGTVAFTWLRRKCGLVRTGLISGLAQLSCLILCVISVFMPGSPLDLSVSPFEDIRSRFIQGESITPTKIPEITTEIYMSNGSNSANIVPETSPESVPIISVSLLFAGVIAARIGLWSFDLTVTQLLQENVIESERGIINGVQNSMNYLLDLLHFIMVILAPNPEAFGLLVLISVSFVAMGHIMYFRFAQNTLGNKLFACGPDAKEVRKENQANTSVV
Assay Method Text: Antagonist activity at C-terminal halo-tag fused human ferroportin expressed in MDCK cells assessed as inhibition of hepcidin-induced ferroportin internalization after overnight incubation by Draq5 staining-based fluorescence assay
Measured IC50 by item
Recorded Metric: IC50

• COc1cc(NS(=O)(=O)Nc2cccc(Cl)c2C)c2ncccc2c1 = 100 µM
• COc1cc(NS(=O)(=O)c2ccc(Cl)cc2Cl)c2ncccc2c1 = 100 µM
• CN1c2c(ccc3cccnc23)-c2ccccc2S1(=O)=O = 100 µM
• Cc1ccc2cccnc2c1NS(=O)(=O)c1ccccc1 = 100 µM
• Cc1cc(NS(=O)(=O)c2ccccc2)c2ncccc2c1C = 100 µM
• COc1ccnc2c(NS(=O)(=O)c3ccccc3)cccc12 = 100 µM
• COc1ccc2cccnc2c1NS(=O)(=O)c1ccccc1 = 100 µM
• Nc1cc(C(F)(F)F)ccc1S(=O)(=O)Nc1ccc(Cl)c2cccnc12 = 100 µM
• O=S(=O)(Nc1c(Cl)ccc2cccnc12)c1ccccc1 = 100 µM
• Cc1ccccc1S(=O)(=O)Nc1cccc2cccnc12 = 100 µM
• COc1cc2cccnc2c2c1-c1ccccc1S(=O)(=O)N2 = 100 µM
• O=S(=O)(Nc1cccc2ccc(Cl)nc12)c1ccccc1 = 100 µM
• Cc1cc(NS(=O)(=O)c2ccccc2)c2ncccc2c1Cl = 100 µM
• O=S(=O)(Nc1c(O)ccc2cccnc12)c1ccccc1 = 100 µM
• O=S(=O)(Nc1ccc(Br)c2cccnc12)c1ccccc1 = 100 µM
• COc1cc(NS(=O)(=O)Nc2c(F)cccc2F)c2ncccc2c1 = 100 µM
• O=[N+]([O-])c1cc(C(F)(F)F)ccc1S(=O)(=O)Nc1cccc2cccnc12 = 100 µM
• O=S(=O)(Nc1cccc2cccnc12)c1c(Cl)cccc1Cl = 100 µM
• Cc1cnc2c(NS(=O)(=O)c3ccc(Cl)cc3Cl)cccc2c1 = 100 µM
• CC(C)c1ccc2cccnc2c1NS(=O)(=O)c1ccccc1 = 100 µM
• Cc1c(Cl)cccc1NS(=O)(=O)Nc1ccc(Cl)c2cccnc12 = 100 µM
• Cc1ccc(S(=O)(=O)Nc2cccc3cc(C)cnc23)c(N)c1 = 100 µM
• CCOc1cc(NS(=O)(=O)c2ccccc2)c2ncccc2c1 = 100 µM
• CCc1ccc2cccnc2c1NS(=O)(=O)c1ccccc1 = 100 µM
• Cc1ccc2cccc(NS(=O)(=O)c3ccccc3N)c2n1 = 100 µM
• CC(=O)Nc1cc(C(F)(F)F)ccc1S(=O)(=O)Nc1cccc2cccnc12 = 100 µM
• O=S(=O)(Nc1ccc(Cl)c2cccnc12)c1ccc(Cl)cc1Cl = 100 µM
• Cc1ccc2cccc(NS(=O)(=O)c3ccccc3)c2n1 = 100 µM
• O=S(=O)(Nc1cc(Cl)cc2cccnc12)c1ccccc1 = 100 µM
• COc1ccc(S(=O)(=O)Nc2cccc3cccnc23)c(N)c1 = 100 µM
• Cc1cc(C)c(S(=O)(=O)Nc2c(Cl)cc(Cl)c3cccnc23)c(C)c1 = 100 µM
• Cc1cccc(Cl)c1S(=O)(=O)Nc1cccc2cccnc12 = 100 µM
• COc1ccc(S(=O)(=O)Nc2cccc3ccc(C)nc23)c(N)c1 = 100 µM
• Cc1ccc2ccc3c(c2n1)NS(=O)(=O)c1ccccc1-3 = 100 µM
• COC(=O)c1ccnc2c(NS(=O)(=O)c3ccccc3)cccc12 = 50 µM
• COc1ccc(S(=O)(=O)Nc2cccc3cccnc23)cc1 = 100 µM
• COc1ccccc1S(=O)(=O)Nc1cccc2cccnc12 = 100 µM
• COc1ccnc2c3c(ccc12)-c1ccccc1S(=O)(=O)N3 = 100 µM
